Tested on: Wnt5a (protein binding on small-molecule microarray)
experiment: Wnt5a binders on small-molecule microarray, primary screen, biophysical, 635/667 nm fluorescence (AID 1142);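 further: fluorescence read at 667 nm with signal to noise per printed feature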
reported-conditions: 635 nm fluorescence, higher = more signal
reported-endpoint: composite z-score
Numbers only.

- C=CC[C@H](OC(=O)Nc1ccc(SC)cc1)c1ccc(O)c(F)c1: -0.171
- CCCC[C@@H](O)C1=C(C)Cn2c(=O)n(-c3ccccc3)c(=O)n2[C@H]1CO: 0.0027

Quick request: composite z-score for each listed item, please.
1. C=CCN1C(=O)[C@@]2(O[C@@H](CCO)[C@H]([Si](C)(C)c3ccc(OC)cc3)[C@H]2C)c2cc(N3CCCCC3=O)ccc21
2. CC1CC/C=C\[C@H]2OC34C=CCN(C(C)C)C(=O)[C@H]3N(C(C)CO)C(=O)[C@@H]4C2C(=O)O1 (some centres undefined)
3. CCOC(=O)C[C@H]1[C@H](OC(=O)c2cc3ccccc3oc2=O)[C@@H](NC(=O)c2ccc(-c3ccccc3)cc2)c2cc(OCCCO)ccc2N1C(=O)Cc1ccc(OC)cc1
4. COC(=O)[C@@]1(Cc2ccc(F)cc2)[C@H]2c3cc(C(=O)N(C)C)n(Cc4ccc(C(F)(F)F)nc4)c3C[C@H]2CN1C(=O)c1ccccc1
5. COc1ccc([Si](C)(C)[C@H]2[C@H](CC(=O)N(CCO)Cc3ccccc3)O[C@@]3(C(=O)N(Cc4cccc(N5CCCCC5=O)c4)c4ccccc43)[C@@H]2C)cc1

Solution:
[0.282, -0.293, 0.391, 0.381, 0.0763]

Please give composite z-score for each item listed below.
1. COC(=O)C(CC#Cc1ccc2c(c1)[C@]1(C(=O)N2)[C@H](C(N)=O)[C@H]2C(=O)O[C@H](c3ccccc3)[C@H](c3ccccc3)N2[C@@H]1c1ccccc1OCCO)C(=O)OC
2. CN1C(=O)C2C=CC(C(O)COCc3ccccc3)N(Nc3ccc([N+](=O)[O-])cc3[N+](=O)[O-])C2C1=O (centres undefined)
3. O=C1O[C@@H](c2ccccc2)[C@@H](c2ccccc2)N2[C@@H](c3ccc(OCCO)cc3)[C@]3(C(=O)Nc4ccc(C#CC5=CCCCC5)cc43)[C@@H](C(=O)Nc3nc4ccccc4s3)[C@H]12
4. O=C1NC(=O)C2C1C=CC(C(O)C(O)CO)N2Nc1ccccn1 (centres undefined)
5. O=C(O)C1=CC[C@H]2C(=O)N(c3ccccc3)C(=O)[C@@H]12
6. C=CCOC(=O)[C@@H]1[C@H]2C(=O)O[C@H](c3ccccc3)[C@H](c3ccccc3)N2[C@H](c2ccc(OCCOC(=O)[C@H]3C[C@H]4C(=O)N[C@@H](CCCCN(C)C)C(=O)N4[C@H]3c3cccc(OCCO)c3)cc2)[C@@]12C(=O)Nc1ccccc12
7. CCCCC(=C=CC[C@H](O)c1ccccc1OCCO)CCO

Solution:
1: 0.151; 2: 0.727; 3: 0.256; 4: 0.146; 5: 0.144; 6: -0.234; 7: -0.0677

Taken from PubChem BioAssay.
